Hi there, I'd appreciate the recorded IC50 (µg/ml) with constrains for every entry that follows.
target-system: HIV Env of isolate 231965.c01 (clade D) (HIV)
assay-info: cell-based or functional assay
Please state the figure in µg/mL; there is no need to write the unit.

Returns the measured IC50 (µg/ml) with constrains for the input binder. Input: ePGDM9 (antibody, V domains shown) VH: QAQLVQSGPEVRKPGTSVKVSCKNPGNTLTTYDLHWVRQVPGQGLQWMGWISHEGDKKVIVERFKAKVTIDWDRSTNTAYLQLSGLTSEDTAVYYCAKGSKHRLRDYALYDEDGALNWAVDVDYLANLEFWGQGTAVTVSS VL: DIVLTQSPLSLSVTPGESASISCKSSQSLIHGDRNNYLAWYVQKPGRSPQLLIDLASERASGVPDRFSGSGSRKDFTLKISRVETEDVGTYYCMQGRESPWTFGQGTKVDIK
0.009

Cool, now PGDM1400 (antibody, V domains shown) VH: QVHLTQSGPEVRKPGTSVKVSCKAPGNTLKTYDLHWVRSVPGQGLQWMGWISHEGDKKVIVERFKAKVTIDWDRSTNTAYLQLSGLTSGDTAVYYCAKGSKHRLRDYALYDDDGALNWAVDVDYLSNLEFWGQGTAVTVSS VL: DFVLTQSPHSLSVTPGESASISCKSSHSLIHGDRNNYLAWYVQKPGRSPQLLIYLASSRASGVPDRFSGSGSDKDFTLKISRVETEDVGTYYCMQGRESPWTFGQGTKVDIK
0.061

Cool, now ePGDM5 (antibody, V domains shown) VH: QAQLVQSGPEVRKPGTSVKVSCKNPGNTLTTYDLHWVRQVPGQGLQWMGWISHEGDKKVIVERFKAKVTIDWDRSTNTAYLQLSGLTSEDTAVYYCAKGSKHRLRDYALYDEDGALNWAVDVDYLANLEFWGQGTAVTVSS VL: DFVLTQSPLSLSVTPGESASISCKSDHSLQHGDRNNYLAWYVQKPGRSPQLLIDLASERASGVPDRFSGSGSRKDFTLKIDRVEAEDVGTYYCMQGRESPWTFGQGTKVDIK
0.009

Cool, now ePGDM13 (antibody, V domains shown) VH: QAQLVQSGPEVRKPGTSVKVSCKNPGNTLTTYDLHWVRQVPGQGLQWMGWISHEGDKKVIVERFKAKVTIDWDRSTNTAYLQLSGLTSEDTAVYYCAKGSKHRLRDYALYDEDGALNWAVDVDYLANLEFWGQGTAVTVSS VL: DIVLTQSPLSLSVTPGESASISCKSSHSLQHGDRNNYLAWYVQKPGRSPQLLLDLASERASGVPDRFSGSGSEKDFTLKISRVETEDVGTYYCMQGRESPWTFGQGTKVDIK
0.015

Reference for the values: patent US20230134571A1
